Where these numbers come from: paper PMC8401404

Tested on: A549
Assay: BrdU proliferation assay, 3D hanging drop cell culture
Assay type: cell-based, human
Details: Homo sapiens, A549, 3D, BrdU, n = 2, read-out: Proliferation Assay IC50 ± SD
Protocol: MTS assay gives us information about the number of living cells, in this case, metabolically active cells, whereas the BrdU proliferation assay gives a measure of the cell population in active division phase. Both assays were performed in 2D and 3D assay formats. […] Cells were grown in 96-well Perfecta 3D hanging drop plates 5000 cell/well for 4 days until spheres were formed (and checked under the microscope). […] Plates were read using PE EnVision luminescence. […]
Quantity name: pIC50
Remember, pIC50 is on a log scale: it is -log10 of the molar concentration.

Look over these answered cases.
INSERT INTO results (compound, quantity_name, result_value) VALUES
  ('Cl.O=[N+]([O-])c1ccc(-c2ccc(-c3nc4ccc(C5=NCCN5)cc4s3)o2)cc1 [Compound 6]', 'pIC50', 5.26),
  ('Cl.Clc1ccc(-c2ccc(-c3nc4ccc(C5=NCCN5)cc4s3)o2)cc1 [Compound 9]', 'pIC50', 4.77);

Memo: COc1cccc2c1C(=O)c1c(O)c3c(c(O)c1C2=O)C[C@@](O)(C(=O)CO)C[C@@H]3O[C@H]1C[C@H](N)[C@H](O)[C@H](C)O1 [Doxorubicin, reference compound] , reported pIC50: 6.32

Memo: CC(C)NC(=N)c1ccc2nc(-c3ccc(-c4ccc(Cl)cc4)o3)sc2c1 [Compound 8] , reported pIC50: 4.70

* * *

system: poly(dAdT)2 (DNA, polymer) AT; assay: UV thermal melting at 260 nm; conditions: Na+ (sodium cacodylate, I = 0.05 M), pH 7.0, r = [compound]/[polynucleotide phosphate] = 0.3, error ±0.5, per base
Counter-ions that a name gives are not always drawn.
Quantity name: ΔTm (°C)
Form entry: value (°C) — number only.

Look over these answered cases.
INSERT INTO assay_data (molecule, result_value) VALUES
  ('CC(C)NC(=N)c1ccc2nc(-c3ccc(-c4ccc(Cl)cc4)o3)sc2c1', 3.6),
  ('Clc1ccc(-c2ccc(-c3nc4cc(C5=NCCN5)ccc4[nH]3)o2)cc1 (as salt: hydrochloride) [Compound 15]', 6.2),
  ('CC(C)NC(=N)c1ccc2nc(-c3ccc(-c4ccc([N+](=O)[O-])cc4)o3)sc2c1', 4.8),
  ('Cl.O=[N+]([O-])c1ccc(-c2ccc(-c3nc4ccc(C5=NCCN5)cc4s3)o2)cc1 [Compound 6]', 3.6);

Let us move to another entry and its ΔTm.
Memo: Cl.Clc1ccc(-c2ccc(-c3nc4ccc(C5=NCCN5)cc4s3)o2)cc1 [Compound 9] , reported ΔTm: 4.6

* * *

test system: A549; assay: MTS cytotoxicity assay, 2D cell culture; settings: read-out: Cytotoxicity Assay IC50 ± SD; A549 2D, 72 h, MTS; n = 2
pIC50: −log10 of the molar value.
Measured pIC50 accompanies every entry in the list below.

INSERT INTO assay_data (smiles_string, assay_target, quantity_name, result_value) VALUES
  ('N#CC(=Cc1ccc(-c2ccc([N+](=O)[O-])cc2)o1)c1nc2cc([N+](=O)[O-])ccc2[nH]1', 'A549', 'pIC50', '< 4.30');

Memo: N#CC(=Cc1ccc(-c2ccc(Cl)cc2)o1)c1nc2cc([N+](=O)[O-])ccc2[nH]1 , reported pIC50: < 4.30

Memo: CC(C)NC(=N)c1ccc2nc(-c3ccc(-c4ccc(Cl)cc4)o3)sc2c1 , reported pIC50: 5.17
